target: 11-beta-hydroxysteroid dehydrogenase 1 (Homo sapiens) (UniProt P28845); test: Inhibition of full-length human 11beta-HSD1 expressed in HEK293 cells at 10 uM after 2 hrs by scintillation proximity assay relative to control; assay type: cell-based
Sequence (P28845 whole entry, looked up): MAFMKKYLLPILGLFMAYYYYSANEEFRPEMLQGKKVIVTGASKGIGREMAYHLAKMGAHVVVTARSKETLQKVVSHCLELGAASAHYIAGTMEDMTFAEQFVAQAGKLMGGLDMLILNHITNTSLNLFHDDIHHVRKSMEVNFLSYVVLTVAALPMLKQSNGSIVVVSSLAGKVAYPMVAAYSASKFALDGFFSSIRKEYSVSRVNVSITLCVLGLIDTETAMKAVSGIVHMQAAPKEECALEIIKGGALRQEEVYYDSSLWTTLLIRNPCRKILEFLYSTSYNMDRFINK
OUTCOME_MEASURE: inhibition (%)

input_smiles=CCOC(=O)C(C)(C)Oc1ccc(Cl)cc1 numeric_result=18.1

[P] CC(C)(Oc1ccc(Cl)cc1)C(=O)O
[Q] CC(C)(Oc1ccc(Cl)cc1)C(=O)Nc1nnn[nH]1
[R] CC1(C)[C@@H](OC(=O)CCC(=O)O)CC[C@]2(C)[C@H]3C(=O)C=C4[C@@H]5C[C@@](C)(C(=O)O)CC[C@]5(C)CC[C@@]4(C)[C@]3(C)CC[C@@H]12
Arrange items by their inhibition values in increasing order. When ranking, write the labels in the order the request describes.
P, Q, R
(P: 19.1%, Q: 51.2%, R: 78.3%)
